This listing pairs molecules with measured NADPH fluorescence slope.
- assayedSystem: Voltage-gated potassium channel subunit beta-2 (Rattus norvegicus)
- assayDetails: KvBeta positive modulators, primary screen, biochemical, NADPH fluorescence (AID 623);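 also: fluorescence intensity change per second fitted from 20 to 320 s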
- conditionSet: Recombinant KvBeta, NADPH fluorescence decrease slope, 10 min; at 10 µM; hits give low values
assayEndpoint: NADPH fluorescence slope

- molecule: "CN(C)c1nc2n(c(=S)n1)CCS2"
  observedResult: "-2e-05"
- molecule: "CCOc1cccc(-c2nnc3sc(-c4cc(OC)c(OC)c(OC)c4)nn23)c1"
  observedResult: -0.000117
- molecule: "CCCOc1cccc(C2C(C(=O)c3ccc(C)o3)=C(O)C(=O)N2CCCN(C)C)c1 (stereo not given)"
  observedResult: "-9.1e-06"
- molecule: "Cc1cccc(OCC(=O)N2CCC(N3CCCCCC3)CC2)c1"
  observedResult: "-4.7e-05"
- molecule: "CCOc1ccc(C2C(C(=O)c3ccc(C)o3)=C(O)C(=O)N2CCCN(CC)CC)cc1 (stereo not given)"
  observedResult: "-3.9e-05"
- molecule: "COc1ccc(N2CCN(c3nc4c(c(=O)[nH]c(=O)n4C)n3CCCc3ccccc3)CC2)cc1"
  observedResult: "-3.7e-05"
- molecule: "COC(=O)c1ccc(Oc2nc3ccccc3n3c(C)nnc23)cc1"
  observedResult: "-1.9e-05"
- molecule: "Cn1nnc2c(sc3nc(N4CCOCC4)c4c(c32)CCCC4)c1=O"
  observedResult: "-2.4e-05"
- molecule: "COc1ccccc1N1CCN(C2CCN(C(=O)c3cccs3)CC2)CC1"
  observedResult: "-3e-05"
- molecule: "Cc1c(NS(=O)(=O)c2cccc3nsnc23)c(=O)n(-c2ccccc2)n1C"
  observedResult: "-3.8e-05"
